- ASSAY REMARKS: chemical genetic growth profiling, strain panel (AID 1159580);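 also: tested at 20 µM; growth read once vehicle control cultures reached saturation at 30 °C; 1 = growth at the plate median or of vehicle wells; lower values mean less growth of the strain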
- ASSAY SETUP: S. cerevisiae deletion strains, growth OD, locus YLL026W
The campaign covered roughly 5,500 compounds. About 2,000 (36%) were called active. About 18% were inconclusive and are not listed. Rule as the data show it: active = normalized growth mostly below about 0.91 (no sharp cut-off); inconclusive = no clear call, values can overlap the other calls; inactive = mostly above about 0.92. The list shows a part of the results.
The categories you may choose from are active, inactive

Cc1cc(C)cc(OCC2CNC(=O)O2)c1 (configuration not stated) = inactive

Note: attention shifts to another entry.
Asked: # fetch the recorded call for CCCC(CCC)C(=O)O here
Given back: inactive

---

- ASSAY REMARKS: chemical genetic growth profiling, strain panel (AID 1159580);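 also: tested at 20 µM; growth read once vehicle control cultures reached saturation at 30 °C; 1 = growth at the plate median or of vehicle wells; lower values mean less growth of the strain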
- ASSAY SETUP: S. cerevisiae deletion strains, growth OD, locus YPR167C, strain met16, stronger effect = lower value
In all, about 5,500 compounds went through this assay and about 2,000 (36%) were called active. Inconclusive results (about 18%) are left out. Some of the results follow.
Listed compounds paired with reported normalized growth
Lab note: write the figure by itself, no unit.

C=C1C(C2(C)C=CC(=O)C(C)(C)C2CC(=O)OC)CC[C@@]2(C)[C@H](c3ccoc3)OC(=O)C3OC132 (stereo partly specified) = 0.983
CN1CCN(C2=Nc3ccccc3Oc3ccc(Cl)cc32)CC1 = 0.993
Nc1ccn(C2O[C@H](CO)[C@@H](O)[C@H]2O)c(=O)n1 (stereo partly specified) = 1.01

Asked: If you can, please state the reported normalized growth value of CC1=C2[C@H]3OC(=O)[C@@H](C)[C@@H]3CC[C@@]2(C)C=CC1=O .
Given back: 1.02

Asked: Please report the recorded normalized growth for C=C1C2CC[C@@]3(C)[C@H](c4ccoc4)OC(=O)C[C@]13O[C@H]1CC(O)C(C)(C)C(CC(=O)OC)[C@@]21C (stereo partly specified) .
Given back: 1.01

Asked: Could you tell me which normalized growth is on file for C[C@@H]1CC2C3C[C@H](F)C4=CC(=O)C=C[C@]4(C)[C@@]3(F)[C@@H](O)C[C@]2(C)[C@@]1(O)C(=O)COC(=O)C(C)(C)C (stereo partly specified) ?
Given back: 1.01

---

- ASSAY REMARKS: chemical genetic growth profiling, strain panel (AID 1159580);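 also: tested at 20 µM; growth read once vehicle control cultures reached saturation at 30 °C; 1 = growth at the plate median or of vehicle wells; lower values mean less growth of the strain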
- ASSAY SETUP: S. cerevisiae deletion strains, growth OD, locus YNL248C, strain rpa49, stronger effect = lower value
The whole screen tested about 5,500 compounds, of which about 2,000 (36%) were called active. Inconclusive results (about 18%) are left out. This is one part of the list.
MEASURE: normalized growth
Lab note: record just the number, no unit beside it.

Answered cases to consult:
Cc1cc(O)c(C=O)c2c1C(=O)Oc1c(COC(=O)/C=C/C(=O)O)c(O)c(C(=O)O)c(C)c1O2 = 1.01
CC(CCC(=O)O)[C@H]1CCC2C3CC[C@@H]4CCCC[C@]4(C)C3CC[C@@]21C (stereo not given in full) = 1.01
NS(=O)(=O)c1cc2c(cc1Cl)NC(C1CC3C=CC1C3)NS2(=O)=O (stereo not given) = 0.999
Cc1nc2ccccn2c(=O)c1CCN1CCC(C(=O)c2ccc(F)cc2)CC1 = 0.979
COc1cc(C)c(C(=O)Oc2cc(C)c(C(=O)O)c(O)c2C)c(OC)c1C = 1.01

Asked: Looking for the measured normalized growth of CC(CCC(=O)O)[C@H]1CCC2C3C(C[C@H](O)[C@@]21C)[C@@]1(C)CC[C@@H](O)C[C@H]1C[C@H]3O (stereo not given in full) , can you help?
Given back: 1.02

Asked: What does the record list as normalized growth for COc1cc([C@H]2Oc3cc([C@H]4Oc5cc(O)cc(O)c5C(=O)[C@@H]4O)ccc3O[C@@H]2CO)ccc1O ?
Given back: 1.01

Asked: Param item = Nc1cc(C(Cl)=C(Cl)Cl)c(S(N)(=O)=O)cc1S(N)(=O)=O ; retrieve measured normalized growth.
Given back: 0.995

Asked: Suppose we examine the compound C[C@H](CCC(=O)O)[C@H]1CCC2C3C(CC[C@@]21C)[C@@]1(C)CC[C@@H](O)C[C@H]1C[C@@H]3O (stereo not given in full) ; what normalized growth value has been reported?
Given back: 1.02

Asked: For the compound shown here, CC(C)CCCC(C)C1CCC2C3CC[C@H]4CCCC[C@]4(C)C3CC[C@]12C (stereo not given in full) , give the reported normalized growth.
Given back: 0.992
